- target-system: KRas G12C (Homo sapiens, UniProt P01116, G12C)
- Construct: NCI-H358 cells (ATCC CRL-5807) express KRas G12C
- Sequence (P01116 1-188 isoform P01116-2 G12C): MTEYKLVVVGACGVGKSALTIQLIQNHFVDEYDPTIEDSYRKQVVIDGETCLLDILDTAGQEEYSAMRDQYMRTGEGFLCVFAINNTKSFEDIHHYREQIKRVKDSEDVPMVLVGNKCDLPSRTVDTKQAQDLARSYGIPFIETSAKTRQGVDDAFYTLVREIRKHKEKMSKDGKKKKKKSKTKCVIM
- assay-overview: Inhibition of KRas G12C-dependent cell growth: Phospho-ERK in NCI-H358 cells
- conditions-used: NCI-H358 cells expressing KRas G12C; Phospho-ERK (Thr202/Tyr204) normalized to GAPDH; 3 hours compound; 4 parameter fit
pIC50: −log10 of the molar value.
measurement-label: pIC50

Example entries and their recorded answers appear below.
| compound | pIC50 |
| --- | --- |
| C=CC(=O)N1CCN(c2nc(OC[C@@H]3CCCN3C)nc3cc(-c4cc(O)cc5ccccc45)ncc23)CC1 | 6.52 |
| CC(C)(C)N1CCC1COc1nc(N2CCN(C(=O)/C=C/CF)[C@@H](CC#N)C2)c2cnc(-c3cccc4cccc(Cl)c34)c(F)c2n1 (stereo partly shown) | 7.92 |
| Cc1cccc2cncc(-c3ncc4c(N5CCN(C(=O)/C=C/CF)[C@@H](CC#N)C5)nc(OC[C@@H]5C[C@@H](F)CN5C)nc4c3F)c12 | 7.72 |
| C=CC(=O)N1CCN(c2ncnc3cc(-c4cccc5cccc(C)c45)ncc23)C[C@@H]1CC#N | 6.30 |
| COC/C=C/C(=O)N1CCN(c2nc(OC[C@@H]3C[C@@H](OC)CN3C)nc3c(F)c(-c4cccc5cccc(Cl)c45)ncc23)C[C@@H]1CC#N | 7.74 |
| C=C(F)C(=O)N1CCN(c2nc(OCC3CCO3)nc3c(F)c(-c4cccc5ccc(F)c(Cl)c45)ncc23)C[C@@H]1CC#N (stereo partly shown) | 6.87 |
| O=C(/C=C/C(F)F)N1CC[C@@H]2[C@H]1CN2c1ncnc2c(F)c(-c3cccc4ccc(F)c(Cl)c34)ncc12 | 6.31 |
| C=CC(=O)N1CCN(c2nc(C)nc3c(F)c(-c4cccc5ccc(F)c(Cl)c45)ncc23)C[C@@H]1CC#N | 7.49 |
| C=CC(=O)N1CCN(c2ncnc3c(F)c(-c4cccc5ccc(F)c(Cl)c45)ncc23)C[C@@H]1CC#N | 7.68 |
| C=C(F)C(=O)N1CCN(c2nc(OC[C@@H]3C[C@H](F)CN3C)nc3c(F)c(-c4cccc5ccc(F)c(Cl)c45)ncc23)C[C@@H]1CC#N | 7.59 |

1 = C=CC(=O)N1CCN(c2ncnc3c(F)c(-c4cccc5ccc(F)c(Cl)c45)ncc23)C(CC#N)C1 (stereo not shown)
2 = C=CC(=O)N1CC[C@@H]2[C@H]1CN2c1nc(NC)nc2c(F)c(-c3cccc4ccc(F)c(Cl)c34)ncc12
input: Kindly identify which of 1 and 2 has the larger recorded pIC50 value. Answer format: the label of the selected item.
output: 2

* * *

- target-system: KRas G12C (Homo sapiens, UniProt P01116, G12C)
- Construct: NCI-H358 cells (ATCC CRL-5807) express KRas G12C
- assay-overview: Inhibition of KRas G12C-dependent cell growth: Phospho-ERK in NCI-H358 cells
- conditions-used: NCI-H358 cells expressing KRas G12C; Phospho-ERK (Thr202/Tyr204) normalized to GAPDH; 3 hours compound; 4 parameter fit
- Experimental: The cellular inhibition of KRAs G12C by exemplary compounds of the present invention was determined by measuring the amount of a downstream marker of KRas activity, phosphorylated ERK (“Phospho-ERK”). […] The amount Phospho-ERK was determined using an antibody specific for the phosphorylated form of ERK and compared to the amount of GAPDH. […] The pERK(Thr202/Tyr204) signal was normalized with the GAPDH signal and percent of DMSO control values were calculated. […]
pIC50: −log10 of the molar value.
measurement-label: pIC50

1 = C=C(F)C(=O)N1CCN(c2nc(OC[C@@H]3CCCN3C)nc3c(F)c(-c4cc(O)cc5ccccc45)ncc23)C[C@@H]1CC#N
2 = C=CC(=O)N1CCN(c2nc(OC[C@@H]3CCCN3C)nc3c(F)c(-c4cccc5cccc(C)c45)ncc23)C[C@@H]1CC#N
3 = C=C(F)C(=O)N1CCN(c2nc(OC[C@@H]3CCCN3C)nc3c(F)c(-c4c(C)ccc5cnn(C)c45)ncc23)C[C@@H]1CC#N
input: Reorder the list above by recorded pIC50 in ascending order. Use the labels to give the requested order.
output: 3, 1, 2
(3: 6.35, 1: 7.85, 2: 8.70)
